B1: Hairpin Ribozyme (parent)
chain: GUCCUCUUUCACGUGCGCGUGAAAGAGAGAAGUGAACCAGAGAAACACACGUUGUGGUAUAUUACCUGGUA

Variants of: B1
Protocol: self-cleavage, relative activity (ratio to wild type); higher = more cleavage; co-transcriptional
Quantity Measured: self-cleavage
Please respond with just the number, no unit label.

// below: answered variants
GUUCUCUUUCACGUGCGCGUGAAAGAGAGAAGUGAACCAGAGAAACACACGUUGUGGUAUGUUACCUGGUA [C3U A61G]; 0.117
GUCCUCUUUCACGUGCUCGUGAAAGAGAGAAGUGAGCCAGAGAAACACACGUUGUGGUAUAUUACCUGGUA [G17U A36G]; 1.06
GUCCUCUUUCACGUGCGCGUGAAAGAGAGAAGUGAACCAGAGAAACACAAGUUGCGGUAUAUUACCUGGUA [C50A U55C]; 0.582
GUCCUCUUUCCCGUGCGCGUGAAAGAGAGAAGUGAACCAGAGAAACGCACGUUGUGGUAUAUUACCUGGUA [A11C A47G]; 0.0993
CUCCUCUUUCACGUGCGCGUGAAAGAGAGAAGUGAACCAGAGAAACACACGUUGUGGUAUAUUUCCUGGUA [G1C A64U]; 0.107

Value of self-cleavage reported for the variant GUCCUCUUUCACGGGCGCGUGACAGAGAGAAGUGAACCAGAGAAACACACGUUGUGGUAUAUUACCUGGUA [U14G A23C] is 0.754

Query GUCCUCUUUCACGCGCGCGUGAAAGAGAGAAGUGAACCAGAGAAACACACGUUGUGGUAGAUUACCUGGUA [U14C U60G] yields self-cleavage of 0.727

Documented self-cleavage of GUCCACUUUCACGUGCGCGUGAAAGAGAGAAGUGAACCAGAGAAACACACGUUAUGGUAUAUUACCUGGUA [U5A G54A] : 0.192

Lab note: GUCCUCUUUCACGUGCGCGUGAAAGAGAGACGUGAACCAGAGAAACACACUUUGUGGUAUAUUACCUGGUA [A31C G51U] gave self-cleavage of 0.149

Record summary for GUCCUCUUUCACGUGCGCGUGAAAGAGAGAAGUGAACCAGAGAAACACACGUUGUGGUACAUUUCCUGGUA [U60C A64U] : reported self-cleavage = 0.183

Notebook: GUCCUCUUUCACCUGCGCGUGAAAGAGAGAAGUGAGCCAGAGAAACACACGUUGUGGUAUAUUACCUGGUA [G13C A36G] , self-cleavage read as 0.816

Noted for GUCCUCUUUCACAUGCGCGUGAAAGAGAGAAGUGCACCAGAGAAACACACGUUGUGGUAUAUUACCUGGUA [G13A A35C] : its self-cleavage reads 0.739

Form field self-cleavage, entry GUCCUCUUUCACGCGCGCGUGAAAGAGAGAAGUGAACCAGAGAAGCACACGUUGUGGUAUAUUACCUGGUA [U14C A45G] : 0.0672

get_value(item= GUCCUCUUUCAGGUGCGCGUGAAAGAGAGAAGUGAAUCAGAGAAACACACGUUGUGGUAUAUUACCUGGUA [C12G C37U] , readout=self-cleavage) returns 0.445

Form: variant = GUCCUCUUUCACGUGCGCGUGAAAGAGAGAAGUGAACCAGAGAAACACACGUUGUCGUAUAUUACCUUGUA [G56C G68U] ; self-cleavage = 0.173

get_value(item= GUCCUCUUUCACGUGCGCGUGAAAGAGCGAAGUGAACCAGAGAAACACACUUUGUGGUAUAUUACCUGGUA [A28C G51U] , readout=self-cleavage) returns 0.746

meta.source: the RNAGym collection of RNA variant scans (doi:10.7554/elife.80360)
